Origin of the recorded values: ChEMBL document CHEMBL1126150

target_of_assay: Kappa-type opioid receptor (Homo sapiens)
procedure_summary: Opioid receptor kappa agonist potency in vitro using rabbit vas deferens(LVD) preparation
Format: functional, Oryctolagus cuniculus
test_settings: target entry is the homologue from another species
property: pIC50
Note on pIC50: it is the negative log10 of concentration, concentration in mol/L.

Ask: Please report the measured pIC50 for `O=C(Cc1ccc(Cl)c(Cl)c1)N1[C@@H](CO)CCC[C@H]1CN1CCCC1`
Reply: 5.66

====

target_of_assay: Kappa-type opioid receptor (Homo sapiens, UniProt P41145)
Sequence (P41145 whole entry): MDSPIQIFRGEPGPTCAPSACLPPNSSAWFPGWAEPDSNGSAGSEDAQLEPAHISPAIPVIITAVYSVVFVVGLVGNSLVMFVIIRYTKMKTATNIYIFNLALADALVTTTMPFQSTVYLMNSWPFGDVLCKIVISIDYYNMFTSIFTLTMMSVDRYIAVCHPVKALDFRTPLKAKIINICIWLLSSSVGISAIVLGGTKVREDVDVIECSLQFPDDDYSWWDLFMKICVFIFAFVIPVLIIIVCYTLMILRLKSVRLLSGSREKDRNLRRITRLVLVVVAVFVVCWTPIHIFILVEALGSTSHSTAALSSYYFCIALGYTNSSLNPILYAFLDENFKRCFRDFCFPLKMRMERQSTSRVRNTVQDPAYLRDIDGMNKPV
procedure_summary: Opioid receptor kappa 1 agonist potency in vitro using rabbit vas deferens(LVD) preparation
Type: functional, Oryctolagus cuniculus
test_settings: target entry is the homologue from another species
property: IC50

Solved entries (count: 6):
>  <compound>
O=C(Cc1ccc(Cl)c(Cl)c1)N1CCCCC1CN1CC=CC1 (configuration not stated)

>  <property>
IC50

>  <result>
3.5 nM

$$$$
>  <compound>
CN(C)CC1CCCCN1C(=O)Cc1ccc(Cl)c(Cl)c1 (configuration not stated)

>  <property>
IC50

>  <result>
102 nM

$$$$
>  <compound>
O=C1CCN(CC2CCCCN2C(=O)Cc2ccc(Cl)c(Cl)c2)C1 (configuration not stated)

>  <property>
IC50

>  <result>
0.2 nM

$$$$
>  <compound>
N#C/C=C1/CCN(CC2CCCCN2C(=O)Cc2ccc(Cl)c(Cl)c2)C1 (configuration not stated)

>  <property>
IC50

>  <result>
0.12 nM

$$$$
>  <compound>
C=C1CCN(CC2CCCCN2C(=O)Cc2ccc(Cl)c(Cl)c2)CC1 (configuration not stated)

>  <property>
IC50

>  <result>
550 nM

$$$$
>  <compound>
N#C/C=C1\CCN(CC2CCCCN2C(=O)Cc2ccc(Cl)c(Cl)c2)C1 (configuration not stated)

>  <property>
IC50

>  <result>
690 nM

$$$$

Ask: Retrieve IC50 on Kappa-type opioid receptor (Homo sapiens, UniProt P41145); query `O=C(Cc1ccc(Cl)c(Cl)c1)N1CC[C@@H](O)C[C@H]1CN1CCCC1`
Reply: 120 nM
